Target: Beta-1 adrenergic receptor (Homo sapiens)
Assay: Antagonist activity at human beta1-AR expressed in CHOK1 cells assessed as inhibition of cimaterol-induced CRE-SPAP production at 100 uM after 5 hrs
Assay type: functional, cell-based
Sequence (P08588 whole entry, looked up): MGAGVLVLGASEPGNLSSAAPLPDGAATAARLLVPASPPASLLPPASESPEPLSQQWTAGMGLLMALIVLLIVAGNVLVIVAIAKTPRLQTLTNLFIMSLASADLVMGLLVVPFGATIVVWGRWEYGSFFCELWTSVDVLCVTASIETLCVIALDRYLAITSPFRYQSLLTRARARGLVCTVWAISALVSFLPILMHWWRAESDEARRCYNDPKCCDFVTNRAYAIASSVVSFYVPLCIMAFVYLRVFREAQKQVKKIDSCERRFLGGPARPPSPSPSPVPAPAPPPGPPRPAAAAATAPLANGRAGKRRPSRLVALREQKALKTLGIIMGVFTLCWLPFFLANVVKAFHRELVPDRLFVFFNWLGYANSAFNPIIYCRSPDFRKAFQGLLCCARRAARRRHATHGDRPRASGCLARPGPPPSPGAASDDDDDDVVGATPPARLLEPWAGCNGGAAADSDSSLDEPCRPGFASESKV
Activity calls are given as the source filed them. The rule behind the calls is not given here.
Entry note: the call must match one of YES = active, NO = inactive

q: Hey, what did the test say about COc1ccc(C(=O)C[n+]2c(C)n(C(F)F)c3ccccc32)cc1 ?
a: NO

Further cases:
q: Kindly provide the recorded test outcome for the following compound: C=CCNCCOc1ccccc1-c1ccccc1
a: YES

q: Hi, sorry to bother you, what did the test record for Cc1n(-c2ccccc2)c2ccc(Cl)cc2[n+]1CCO ?
a: NO

q: Give the logged outcome of this assay for the following compound: COc1cccc(/C=C2\Oc3c(CN4CCCC4)c(O)cc(C)c3C2=O)c1
a: YES

* * *

Reported values: Ki for UniProtKB P07550, one per item.

q: Bench note: what Ki did Cc1cc(O)c(CN2CCCC2)c2c1C(=O)/C(=C\c1ccco1)O2 show?
a: 9 to 3200 nM

q: I'd like to know its Ki. The compound in question is CCN1C(=Cc2sc3ccccc3[n+]2C)C=Cc2cccc(C)c21
a: 9 to 3200 nM

***
q: Bench note: what Ki did CCNCCOc1ccccc1-c1ccccc1 show?
a: 9 to 3200 nM

* * *

# Kd per entry for Beta-1 adrenergic receptor (Homo sapiens, UniProt P08588)
One number for each entry, in µM.

Example entries and their recorded answers appear below.
q: For the molecule CN(C)CCOCCOc1ccccc1-c1ccccc1 , what Kd is on record?
a: 45.7

q: Query: Kd; subject: COc1cccc(/C=C2\Oc3c(CN4CCN(C)CC4)c(O)cc(C)c3C2=O)c1
a: 26.3

Return reported Kd values for all items listed beneath this line.
1. C[n+]1c(/C=C/c2ccccc2Cl)sc2ccccc21
2. CCOC(=O)c1cc(/C=C/c2sc3ccccc3[n+]2C)c2sc3ccccc3n12
3. COc1cccc(/C=C2\Oc3c(CN4CCCC4)c(O)cc(C)c3C2=O)c1

a:
1. 13.8
2. 3.09
3. 35.5

q: Endpoint output: Kd of CC(C)(C)NC[C@@H](O)COc1ccccc1-c1ccccc1 . Value?
a: 0.000977

* * *

Organism: Homo sapiens
Test: Selectivity ratio of Kd for human beta1-AR expressed in CHOK1 cells to Kd for human beta2-AR expressed in CHOK1 cells
Format: cell-based
Exercise: for every item that follows, state its recorded Selectivity ratio.

Batch lookup, Selectivity ratio per entry.
1. Cc1cc(O)c(CN2CCCC2)c2c1C(=O)/C(=C/c1cc3ccccc3o1)O2
2. C[n+]1c(/C=C/c2ccccc2Cl)sc2ccccc21
3. CN(C)CCOCCOc1ccccc1-c1ccccc1
4. C=CCNCCOc1ccccc1-c1ccccc1
5. COc1cccc(/C=C2\Oc3c(CN(C)C)c(O)cc(C)c3C2=O)c1
6. Cc1cc(O)c(CN(C)C)c2c1C(=O)/C(=C/c1ccccc1)O2

a:
1. 2.6
2. 2.8
3. 12
4. 10.5
5. 2
6. 1.9

* * *

Biological target: Beta-2 adrenergic receptor (Homo sapiens)
Experiment: Displacement of [3H](-)CGP12177 from human beta2-AR expressed in CHOK1 cells after 2 hrs by TopCount microscintillation counting method
Assay type: cell-based
Settings: read-out: pKd (converted)
Sequence (P07550 whole entry): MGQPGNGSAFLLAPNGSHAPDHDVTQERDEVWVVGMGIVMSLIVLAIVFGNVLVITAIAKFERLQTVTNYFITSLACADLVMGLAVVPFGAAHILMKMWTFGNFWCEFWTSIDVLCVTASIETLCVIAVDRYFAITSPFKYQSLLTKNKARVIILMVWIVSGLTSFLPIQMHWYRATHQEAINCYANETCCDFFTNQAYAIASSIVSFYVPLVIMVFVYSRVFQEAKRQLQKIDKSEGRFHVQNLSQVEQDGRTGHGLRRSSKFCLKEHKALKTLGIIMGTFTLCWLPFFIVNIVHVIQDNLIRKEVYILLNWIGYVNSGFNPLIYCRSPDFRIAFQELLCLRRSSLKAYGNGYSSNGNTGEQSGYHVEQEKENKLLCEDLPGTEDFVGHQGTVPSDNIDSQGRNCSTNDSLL
# label = Condition met if Kd < 5 µM else Condition not met

Field: example entries. Status: answers known.
q: hey, is Kd for COc1cccc(/C=C2\Oc3c(CN4CCCC4)c(O)cc(C)c3C2=O)c1 lower than 5 µM or not?
a: Condition not met

q: For this molecule, is Kd lower than 5 µM? CC(C)(C)NC[C@@H](O)COc1ccccc1-c1ccccc1
a: Condition met

q: Does the reported Kd of the following molecule sit strictly below 5 µM? CN(C)CCOCCOc1ccccc1-c1ccccc1
a: Condition met

q: # strict comparison: is reported Kd < 5 µM? input = C=CCNCCOc1ccccc1-c1ccccc1
a: Condition met

q: Hi there! Is Kd for COc1cccc(/C=C2\Oc3c(CN(C)C)c(O)cc(C)c3C2=O)c1 below 5 µM, do you know?
a: Condition not met

q: Hello, is Kd of the following molecule strictly smaller than 5 µM? C[n+]1c(/C=C/Nc2ccccc2)sc2ccccc21
a: Condition not met

q: Is 5 µM strictly greater than the molecule's reported Kd? molecule: CN(C)CCOc1ccc2ccccc2c1C=O
a: Condition not met

q: I wonder whether CCOC(=O)c1cc(/C=C/c2sc3ccccc3[n+]2C)c2sc3ccccc3n12 has Kd below 5 µM. Can you tell?
a: Condition met

Now for another entry.
q: Would you kindly verify if Kd of COc1cccc(/C=C2\Oc3c(CN4CCN(C)CC4)c(O)cc(C)c3C2=O)c1 is strictly less than 5 µM?
a: Condition not met

* * *

Target: Beta-2 adrenergic receptor (Homo sapiens, UniProt P07550)
Test: Antagonist activity at human beta2-AR expressed in CHOK1 cells assessed as inhibition of cimaterol-induced CRE-SPAP production at 100 uM after 5 hrs
Type: functional, cell-based
Sequence (P07550 whole entry, looked up): as the sequence (P07550 whole entry) above
Active and inactive are the calls of the source. No cut-off for these calls is given here.
Field 'call' accepts True for active, False for inactive

Some solved cases for reference:
q: Recorded test outcome, item C=CCNCCOc1ccccc1-c1ccccc1
a: True

q: Tell me the recorded outcome of this test for Cc1n(-c2ccccc2)c2ccc(Cl)cc2[n+]1CCO .
a: False

q: // param item: COc1ccc(C(=O)C[n+]2c(C)n(C(F)F)c3ccccc32)cc1 ; yields the recorded call
a: False

Moving on to the next compound.
q: Hey, what did the test say about COc1cccc(/C=C2\Oc3c(CN4CCCC4)c(O)cc(C)c3C2=O)c1 ?
a: True

* * *

Molecular target: Beta-2 adrenergic receptor (Homo sapiens, UniProt P07550)
Assay: Displacement of [3H](-)CGP12177 from human beta2-AR expressed in CHOK1 cells after 2 hrs by TopCount microscintillation counting method
Type: cell-based
Conditions: read-out: Kd
metric_name: Kd (nM)
Give bare numbers, in nM.

q: Which Kd value is on record for CC(C)(C)NCC(O)COc1ccccc1-c1ccccc1 (stereo unspecified) ?
a: 0.035

* * *

Molecular target: Beta-2 adrenergic receptor (Homo sapiens)
Assay: Partial agonist activity at human beta2-AR expressed in CHOK1 cells assessed as inhibition of cimaterol-induced CRE-SPAP production after 5 hrs
Type: functional, cell-based
metric_name: Kd
Please provide the amount together with its unit, number first.

q: Any idea what Kd was measured for CC(C)(C)NC[C@@H](O)COc1ccccc1-c1ccccc1 ?
a: 0.0182 nM
